Biological target: Adenosine deaminase (Bos taurus)
Sequence (P56658 whole entry): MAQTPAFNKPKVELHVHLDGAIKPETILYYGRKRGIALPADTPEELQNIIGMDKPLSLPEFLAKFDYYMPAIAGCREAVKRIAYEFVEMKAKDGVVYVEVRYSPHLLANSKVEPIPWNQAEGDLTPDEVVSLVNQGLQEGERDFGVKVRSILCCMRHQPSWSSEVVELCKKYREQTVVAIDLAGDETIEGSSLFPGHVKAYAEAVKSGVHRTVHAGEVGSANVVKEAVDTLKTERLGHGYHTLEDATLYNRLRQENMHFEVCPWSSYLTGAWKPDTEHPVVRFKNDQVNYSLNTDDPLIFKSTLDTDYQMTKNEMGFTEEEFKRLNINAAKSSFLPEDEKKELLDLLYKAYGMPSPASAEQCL
Assay: Activity of calf mucosal adenosine deaminase assessed as enzyme-mediated drug metabolism by liquid chromatographic analysis
Format: ADME
Conditions: cattle
OBSERVED_PROPERTY: Stability

CCC(=O)O[C@H]1[C@H](OC(=O)CC)[C@@H](CO)O[C@H]1n1cnc2c(N)ncnc21	Stable
Nc1ncnc2c1ncn2[C@@H]1O[C@H](CO)[C@@H](OC(=O)c2ccccc2)[C@@H]1OC(=O)c1ccccc1	Stable
CCC(=O)OC[C@H]1O[C@@H](n2cnc3c(N)ncnc32)[C@@H](O)[C@@H]1OC(=O)CC	Stable
CC(C)C(=O)O[C@H]1[C@H](OC(=O)C(C)C)[C@@H](CO)O[C@H]1n1cnc2c(N)ncnc21	Stable
CC(C)C(=O)O[C@H]1[C@H](O)[C@H](n2cnc3c(N)ncnc32)O[C@@H]1CO	Unstable
CC(=O)O[C@H]1[C@H](OC(C)=O)[C@@H](CO)O[C@H]1n1cnc2c(N)ncnc21	Stable

So what's the measured Stability for this one? CC(C)C(=O)OC[C@H]1O[C@@H](n2cnc3c(N)ncnc32)[C@@H](O)[C@@H]1OC(=O)C(C)C
Stable

Similarly, CC(C)(C)C(=O)OC[C@H]1O[C@@H](n2cnc3c(N)ncnc32)[C@@H](O)[C@@H]1OC(=O)C(C)(C)C ?
Stable

Item: CC(=O)O[C@H]1[C@H](O)[C@H](n2cnc3c(N)ncnc32)O[C@@H]1CO
Unstable

Check CC(=O)OC[C@H]1O[C@@H](n2cnc3c(N)ncnc32)[C@@H](O)[C@@H]1OC(C)=O too.
Stable

And CCC(=O)O[C@H]1[C@H](O)[C@@H](CO)O[C@H]1n1cnc2c(N)ncnc21 ?
Stable

One more compound: CCC(=O)O[C@H]1[C@H](O)[C@H](n2cnc3c(N)ncnc32)O[C@@H]1CO
Unstable

Next up: CC(=O)O[C@H]1[C@H](O)[C@@H](CO)O[C@H]1n1cnc2c(N)ncnc21
Stable

* * *

System: Human alphaherpesvirus 1
Assay: Antiviral activity against Herpes simplex virus 1 assessed as plaque reduction at 0.18 x 10^-5 M by cell-based assay relative to vidarabine
Format: functional
For each record, write down the corresponding inhibition at 1.8 µM.
Give your result in % as a bare value.

Need inhibition at 1.8 µM of CCC(=O)OC[C@H]1O[C@@H](n2cnc3c(N)ncnc32)[C@@H](O)[C@@H]1OC(=O)CC , thanks.
23

Do the same for CC(=O)O[C@H]1[C@H](OC(C)=O)[C@@H](CO)O[C@H]1n1cnc2c(N)ncnc21 please
40

Next entry: CCC(=O)O[C@H]1[C@H](OC(=O)CC)[C@@H](CO)O[C@H]1n1cnc2c(N)ncnc21
60

Can you handle CCC(=O)O[C@H]1[C@H](O)[C@H](n2cnc3c(N)ncnc32)O[C@@H]1CO next?
36

Please do the same for CCC(=O)O[C@H]1[C@H](O)[C@@H](CO)O[C@H]1n1cnc2c(N)ncnc21 as well.
36

Also, CC(C)C(=O)O[C@H]1[C@H](O)[C@H](n2cnc3c(N)ncnc32)O[C@@H]1CO please.
60
